- Condition set: mouse, in vivo
Quantity kind: partitioning half life (h)

[[record]]
compound = "CCCCCCCCCCCCCCCCCCOC(=O)COCC(=O)O[C@@H](C(=O)O[C@H]1C[C@@]2(O)[C@@H](OC(=O)c3ccccc3)[C@@H]3[C@]4(OC(C)=O)CO[C@@H]4C[C@H](O)[C@@]3(C)C(=O)[C@H](OC(C)=O)C(=C1C)C2(C)C)[C@@H](NC(=O)c1ccccc1)c1ccccc1 [Prodrug 5]"
unit_text = "h"
quantitative_readout = 1.7


----------
- Condition set: co-lipid POPC; prodrug/co-lipid/2.5kPS3k (1:1:2); 300 mM sucrose; vortexing 30 seconds
Quantity kind: ΔZave 300 mM sucrose (nm)

[[record]]
compound = "CC(=O)O[C@H]1C(=O)[C@@]2(C)[C@H]([C@H](OC(=O)c3ccccc3)[C@]3(O)C[C@H](OC(=O)[C@H](OC(=O)COCC(=O)O[C@H]4CC[C@@]5(C)C(=CC[C@H]6[C@@H]7CC[C@H]([C@H](C)CCCC(C)C)[C@@]7(C)CC[C@@H]65)C4)[C@@H](NC(=O)c4ccccc4)c4ccccc4)C(C)=C1C3(C)C)[C@]1(OC(C)=O)CO[C@@H]1C[C@@H]2O [Prodrug 8]"
quantitative_readout = 41

[[record]]
compound = "CCCCCCCC/C=C\\CCCCCCCCOC(=O)COCC(=O)O[C@@H](C(=O)O[C@H]1C[C@@]2(O)[C@@H](OC(=O)c3ccccc3)[C@@H]3[C@]4(OC(C)=O)CO[C@@H]4C[C@H](O)[C@@]3(C)C(=O)[C@H](OC(C)=O)C(=C1C)C2(C)C)[C@@H](NC(=O)c1ccccc1)c1ccccc1 [Prodrug 4, 2′-O-(5″-O-oleyldiglycoloyl)-paclitaxel]"
quantitative_readout = 5

[[record]]
compound = "CCCCCCCCCCCCCCCCCCOC(=O)COCC(=O)O[C@@H](C(=O)O[C@H]1C[C@@]2(O)[C@@H](OC(=O)c3ccccc3)[C@@H]3[C@]4(OC(C)=O)CO[C@@H]4C[C@H](O)[C@@]3(C)C(=O)[C@H](OC(C)=O)C(=C1C)C2(C)C)[C@@H](NC(=O)c1ccccc1)c1ccccc1 [Prodrug 5]"
quantitative_readout = 7


----------
Recorded ΔZave 150 mM saline values for a group of molecules are listed next.
- Condition set: co-lipid POPC; prodrug/co-lipid/2.5kPS3k (1:1:2); 150 mM saline; vortexing 30 seconds
Quantity kind: ΔZave 150 mM saline (nm)

[[record]]
molecule = "CC(=O)O[C@H]1C(=O)[C@@]2(C)[C@H]([C@H](OC(=O)c3ccccc3)[C@]3(O)C[C@H](OC(=O)[C@H](OC(=O)COCC(=O)O[C@H]4CC[C@@]5(C)C(=CC[C@H]6[C@@H]7CC[C@H]([C@H](C)CCCC(C)C)[C@@]7(C)CC[C@@H]65)C4)[C@@H](NC(=O)c4ccccc4)c4ccccc4)C(C)=C1C3(C)C)[C@]1(OC(C)=O)CO[C@@H]1C[C@@H]2O [Prodrug 8]"
unit_text = "nm"
quantitative_readout = 42

[[record]]
molecule = "CCCCCCCCCCCCCCCCCCCCCCOC(=O)COCC(=O)OC(C(=O)OC1CC2(O)C(OC(=O)c3ccccc3)C3C4(OC(C)=O)COC4CC(O)C3(C)C(=O)C(OC(C)=O)C(=C1C)C2(C)C)C(NC(=O)c1ccccc1)c1ccccc1 (centres unmarked) [Prodrug 7]"
unit_text = "nm"
quantitative_readout = 24

[[record]]
molecule = "CCCCCCCCCCCCCC(=O)OC[C@H](COC(=O)COCC(=O)O[C@@H](C(=O)O[C@H]1C[C@@]2(O)[C@@H](OC(=O)c3ccccc3)[C@@H]3[C@]4(OC(C)=O)CO[C@@H]4C[C@H](O)[C@@]3(C)C(=O)[C@H](OC(C)=O)C(=C1C)C2(C)C)[C@@H](NC(=O)c1ccccc1)c1ccccc1)OC(=O)CCCCCCCCCCCCC [Prodrug 9]"
unit_text = "nm"
quantitative_readout = 171

[[record]]
molecule = "CCCCCCCC/C=C\\CCCCCCCCOC(=O)CCC(=O)O[C@@H](C(=O)O[C@H]1C[C@@]2(O)[C@@H](OC(=O)c3ccccc3)[C@@H]3[C@]4(OC(C)=O)CO[C@@H]4C[C@H](O)[C@@]3(C)C(=O)[C@H](OC(C)=O)C(=C1C)C2(C)C)[C@@H](NC(=O)c1ccccc1)c1ccccc1 [Prodrug 2, 2′-O-(4″-O-oleylsuccinoyl)-paclitaxel]"
unit_text = "nm"
quantitative_readout = 43

[[record]]
molecule = "CCCCCCCCCCCCCCCCCCOC(=O)COCC(=O)O[C@@H](C(=O)O[C@H]1C[C@@]2(O)[C@@H](OC(=O)c3ccccc3)[C@@H]3[C@]4(OC(C)=O)CO[C@@H]4C[C@H](O)[C@@]3(C)C(=O)[C@H](OC(C)=O)C(=C1C)C2(C)C)[C@@H](NC(=O)c1ccccc1)c1ccccc1 [Prodrug 5]"
unit_text = "nm"
quantitative_readout = 24

[[record]]
molecule = "CCCCCCCC/C=C\\CCCCCCCCOC(=O)COCC(=O)O[C@@H](C(=O)O[C@H]1C[C@@]2(O)[C@@H](OC(=O)c3ccccc3)[C@@H]3[C@]4(OC(C)=O)CO[C@@H]4C[C@H](O)[C@@]3(C)C(=O)[C@H](OC(C)=O)C(=C1C)C2(C)C)[C@@H](NC(=O)c1ccccc1)c1ccccc1 [Prodrug 4, 2′-O-(5″-O-oleyldiglycoloyl)-paclitaxel]"
unit_text = "nm"
quantitative_readout = 25

[[record]]
molecule = "CCCCCCCCCCCCCCCCCCCCOC(=O)COCC(=O)O[C@@H](C(=O)O[C@H]1C[C@@]2(O)[C@@H](OC(=O)c3ccccc3)[C@@H]3[C@]4(OC(C)=O)CO[C@@H]4C[C@H](O)[C@@]3(C)C(=O)[C@H](OC(C)=O)C(=C1C)C2(C)C)[C@@H](NC(=O)c1ccccc1)c1ccccc1 [Prodrug 6]"
unit_text = "nm"
quantitative_readout = 26

[[record]]
molecule = "CC(=O)OC1C(=O)C2(C)C(O)CC3OCC3(OC(C)=O)C2C(OC(=O)c2ccccc2)C2(O)CC(OC(=O)C(OC(=O)COCC(=O)Oc3c(C)c(C)c4c(c3C)CCC(C)(CCCC(C)CCCC(C)CCCC(C)C)O4)C(NC(=O)c3ccccc3)c3ccccc3)C(C)=C1C2(C)C (centres unmarked) [Prodrug 3]"
unit_text = "nm"
quantitative_readout = 55


----------
- Condition set: co-lipid POPC; prodrug/co-lipid/2.5kPS3k (1:1:2); water; vortexing 30 seconds
Quantity kind: ΔZave water (nm)

[[record]]
compound = "CC(=O)O[C@H]1C(=O)[C@@]2(C)[C@H]([C@H](OC(=O)c3ccccc3)[C@]3(O)C[C@H](OC(=O)[C@H](OC(=O)COCC(=O)O[C@H]4CC[C@@]5(C)C(=CC[C@H]6[C@@H]7CC[C@H]([C@H](C)CCCC(C)C)[C@@]7(C)CC[C@@H]65)C4)[C@@H](NC(=O)c4ccccc4)c4ccccc4)C(C)=C1C3(C)C)[C@]1(OC(C)=O)CO[C@@H]1C[C@@H]2O [Prodrug 8]"
quantitative_readout = 47

[[record]]
compound = "CCCCCCCC/C=C\\CCCCCCCCOC(=O)COCC(=O)O[C@@H](C(=O)O[C@H]1C[C@@]2(O)[C@@H](OC(=O)c3ccccc3)[C@@H]3[C@]4(OC(C)=O)CO[C@@H]4C[C@H](O)[C@@]3(C)C(=O)[C@H](OC(C)=O)C(=C1C)C2(C)C)[C@@H](NC(=O)c1ccccc1)c1ccccc1 [Prodrug 4, 2′-O-(5″-O-oleyldiglycoloyl)-paclitaxel]"
quantitative_readout = 15


----------
- Condition set: co-lipid POPC; prodrug/co-lipid/2.5kPS3k (1:1:2); water; vortexing 30 seconds
Quantity kind: ΔZave water

[[record]]
compound = "CC(=O)OC1C(=O)C2(C)C(O)CC3OCC3(OC(C)=O)C2C(OC(=O)c2ccccc2)C2(O)CC(OC(=O)C(OC(=O)COCC(=O)Oc3c(C)c(C)c4c(c3C)CCC(C)(CCCC(C)CCCC(C)CCCC(C)C)O4)C(NC(=O)c3ccccc3)c3ccccc3)C(C)=C1C2(C)C (stereo not shown) [Prodrug 3]"
quantity_kind = "ΔZave water"
result = "125 nm"


----------
- Condition set: prodrug/POPC/2.5kPS3k (1:1:2) nanoparticles in water; volume weighted average
The following compounds are shown together with reported Diameter values.
Quantity kind: Diameter (nm)

[[record]]
compound = "CCCCCCCCCCCCCCCCCCCCOC(=O)COCC(=O)O[C@@H](C(=O)O[C@H]1C[C@@]2(O)[C@@H](OC(=O)c3ccccc3)[C@@H]3[C@]4(OC(C)=O)CO[C@@H]4C[C@H](O)[C@@]3(C)C(=O)[C@H](OC(C)=O)C(=C1C)C2(C)C)[C@@H](NC(=O)c1ccccc1)c1ccccc1 [Prodrug 6]"
quantitative_readout = 23

[[record]]
compound = "CCCCCCCCCCCCCCCCCCCCCCOC(=O)COCC(=O)OC(C(=O)OC1CC2(O)C(OC(=O)c3ccccc3)C3C4(OC(C)=O)COC4CC(O)C3(C)C(=O)C(OC(C)=O)C(=C1C)C2(C)C)C(NC(=O)c1ccccc1)c1ccccc1 (centres unmarked) [Prodrug 7]"
quantitative_readout = 23

[[record]]
compound = "CCCCCCCC/C=C\\CCCCCCCCOC(=O)COCC(=O)O[C@@H](C(=O)O[C@H]1C[C@@]2(O)[C@@H](OC(=O)c3ccccc3)[C@@H]3[C@]4(OC(C)=O)CO[C@@H]4C[C@H](O)[C@@]3(C)C(=O)[C@H](OC(C)=O)C(=C1C)C2(C)C)[C@@H](NC(=O)c1ccccc1)c1ccccc1 [Prodrug 4, 2′-O-(5″-O-oleyldiglycoloyl)-paclitaxel]"
quantitative_readout = 22

[[record]]
compound = "CCCCCCCCCCCCCCCCCCOC(=O)COCC(=O)O[C@@H](C(=O)O[C@H]1C[C@@]2(O)[C@@H](OC(=O)c3ccccc3)[C@@H]3[C@]4(OC(C)=O)CO[C@@H]4C[C@H](O)[C@@]3(C)C(=O)[C@H](OC(C)=O)C(=C1C)C2(C)C)[C@@H](NC(=O)c1ccccc1)c1ccccc1 [Prodrug 5]"
quantitative_readout = 21

[[record]]
compound = "CCCCCCCC/C=C\\CCCCCCCCOC(=O)CCC(=O)O[C@@H](C(=O)O[C@H]1C[C@@]2(O)[C@@H](OC(=O)c3ccccc3)[C@@H]3[C@]4(OC(C)=O)CO[C@@H]4C[C@H](O)[C@@]3(C)C(=O)[C@H](OC(C)=O)C(=C1C)C2(C)C)[C@@H](NC(=O)c1ccccc1)c1ccccc1 [Prodrug 2, 2′-O-(4″-O-oleylsuccinoyl)-paclitaxel]"
quantitative_readout = 26


Source: patent US8486924B2
